# System: HT-29
# assayDetails: NCI tumour cell line growth inhibition, 48 h
The source made the active and inactive calls. No stated cut-off is given here; in the data, active = GI50 up to about 1.1 µM and inactive = higher.
Respond using exactly one of the listed classes: YES for active, NO for inactive

[
  {
    "compound": "O=[N+]([O-])C(=C(N1CCCCC1)N1CCCCC1)/C(Cl)=C(\\Cl)Br",
    "category": "NO"
  },
  {
    "compound": "C/C1=C\\[C@H](C)C[C@H](C)OC(=O)C[C@H](c2ccc(O)cc2)NC(=O)[C@@H](Cc2c(Br)[nH]c3ccccc23)N(C)C(=O)[C@H](C)NC(=O)[C@@H](C)C1 [JASPAMIDE]",
    "category": "YES"
  },
  {
    "compound": "C=C(CCOC)CCC1CCCCC(=C)C1=O (stereo not drawn)",
    "category": "NO"
  }
]

# lookup: test call for CC(=O)Nc1ccc(C(=O)NN2C(=O)CSC2c2ccccc2)cc1 (stereo not drawn)
NO

Input COC(=O)C1=C(C(=O)OC)C2(C(=O)OC)OC1(OC)C(C1(C(=O)OC)C(C(=O)OC)=C1C(=O)OC)=C2C(=O)OC (stereo not drawn)
NO

Lookup COc1ccc(CC2c3cc(OC)c(OC)c(OC)c3CC[N+]2(C)C)cc1Oc1ccc(CC2c3cc4c(c(OC)c3CCN2C)OCO4)cc1 (stereo not drawn)
NO

And the next one, `O=c1[nH]nc(Nc2ccccc2)c2nnn(C3CCCCC3)c12` ?
NO

Another: `COC(=O)CCC(=O)CC(=O)C(=O)Nc1ccc(F)cc1`
NO

====

# GI50 annotations
# System: HCT-15

Before answering, review these 3 worked examples.
[
  {
    "compound": "COc1ccc(C2S/C(=C\\c3ccc(O)cc3)C(=O)N2NC(=O)Cc2ccccc2)cc1 (centres undefined)",
    "GI50": "> 100 µM"
  },
  {
    "compound": "Cc1ccc(NC(=O)CC/C(CC(=O)C(C)(C)C)=N/NC(=O)C(N)=O)cc1C",
    "GI50": "> 100 µM"
  },
  {
    "compound": "O=Cc1c(O)ccc2ccc(O)c(-c3c(O)ccc4ccc(O)cc34)c12",
    "GI50": "> 100 µM"
  }
]

Write down the reported GI50 of `CC(C)(C)OC(=O)N(CCCN)CCCCN(CCCN)C(=O)OC(C)(C)C` , test system: HCT-15.
> 100 µM

Proceed to NC1c2c(Cl)sc(Cl)c2C(=O)C1O (centres undefined)
16.5 µM

Same again, this time with `Cc1c2ccccc2c(=O)n2c(-c3ccccn3)cccc12`
> 100 µM

Repeat with `O=C(NCCCCNCCCNC(=O)OCc1ccccc1)OCc1ccccc1`
61.5 µM

Next compound: `CC1=C(Cl)C[C@@H](/C(C)=C\Cl)O[C@@]1(O)C(Br)Br`
16.8 µM

Next entry: OCC1O[C@H](O[C@@H]2CCCN3CC(O)C(O)[C@@H]23)C(O)C(O)C1O (some centres undefined)
> 100 µM

====

# Tested on: SN12C
# assayDetails: NCI tumour cell line growth inhibition, 48 h
The source made the active and inactive calls. Cut-off read from the data, not from the text of the source: active = GI50 up to about 1.1 µM and inactive = higher.
experimentalReadout: GI50

[
  {
    "molecule": "Fc1ccc2nc3n(c2c1)C(c1c(F)cccc1F)SC3 (stereo not given)",
    "experimentalReadout": "GI50",
    "readoutValue": "77.4 µM (inactive)"
  },
  {
    "molecule": "O=C1CC(=O)NC(NN2C(=O)/C(=C/c3ccccc3)N=C2c2ccccc2)=N1",
    "experimentalReadout": "GI50",
    "readoutValue": "> 100 µM (inactive)"
  },
  {
    "molecule": "CCOc1ccc(Nc2nc(C)c(C(=O)/C=C/c3ccc(Cl)cc3Cl)s2)cc1",
    "experimentalReadout": "GI50",
    "readoutValue": "19.3 µM (inactive)"
  },
  {
    "molecule": "CCOC(=O)/C(C(=O)c1ccccc1)=C1/NCCN1C",
    "experimentalReadout": "GI50",
    "readoutValue": "> 100 µM (inactive)"
  },
  {
    "molecule": "CC(C)Oc1ccc(CNC2=NCCO2)c2ccccc12",
    "experimentalReadout": "GI50",
    "readoutValue": "17.3 µM (inactive)"
  }
]

What does the record list as GI50 for `CC(/C=C/c1ncccc1OCCCCCC(=O)O)=N\NC1=NCCN1` ?
> 100 µM (inactive)

And the next one, `Cc1cc2oc(=N)c(C#N)c(C)c2cc1C` ?
96.2 µM (inactive)

Next molecule: S=C1CC(c2ccccc2)Sc2ccccc2N1 (stereo not given)
97.7 µM (inactive)

Do the same for `O[C@@H]1C[C@H]2N3CC[C@@]2(c2cc4c(cc2C3)OCO4)[C@H]2O[C@@H]12` please
> 100 µM (inactive)

And for C[C@]12Cc3conc3C(O)=C1CC[C@@H]1C2CC[C@@]2(C)C1CC[C@]2(C)O (stereo not given in full) ?
33 µM (inactive)
